Data origin, for the record: patent US20230357415A1

Target: T1, sIL-4Rα (soluble IL-4Rα) antigen protein (human, UniProt P24394 26-232)
T1 construct: The ELISA and Octet assays used the bought protein (Sinobio 10402-H08H); also called CD124; sinobio 10402-H08H
Test: BLI (Octet QKe), antibody on AHC sensor, sIL-4Rα in solution, 1:1 model
Record form. Attribute: koff. Fill in for each entry.
For clarity, give the value followed by its unit.

Q: # get_value(readout='koff', item= 4R.N7 (antibody, V domains shown, Converted from scFab to IgG1 and expressed in HEK293F) VH: EVQLLESGGGLVQPGGSLRLSCAASGFTFSRHAMAWVRQAPGKGLEWVSAITASGRSIYYADSVKGRFTISRDNSKNTLYLQMNSLRAEDTAVYYCARVHRAFDYWGQGTLVTVSS VL: QSVLTQPPSASGTPGQRVTISCSGSPLFPDSGSFNWYQQLPGTAPKLLIYADSHRPSGVPDRFSGSKSGTSASLAISGLRSEDEADYYCGTWDYSLSSYVLGGGTKLTVLG )
Ans: 6.07e-05 s⁻¹

Q: And the next one, 4R.N4 (antibody, V domains shown, Converted from scFab to IgG1 and expressed in HEK293F) VH: EVQLLESGGGLVQPGGSLRLSCAASGFTFSRHAMAWVRQAPGKGLEWVSAITMSGRGIYYADSVKGRFTISRDNSKNTLYLQMNSLRAEDTAVYYCARVHRAFDYWGQGTLVTVSS VL: QSVLTQPPSASGTPGQRVTISCSGSPLFPDSGSFNWYQQLPGTAPKLLIYADSHRPSGVPDRFSGSKSGTSASLAISGLRSEDEADYYCGTWDYSLSAYVLGGGTKLTVLG ?
Ans: 0.000162 s⁻¹

Q: And the next one, 4R.N3 (antibody, V domains shown, Converted from scFab to IgG1 and expressed in HEK293F) VH: EVQLLESGGGLVQPGGSLRLSCAASGFTFSRHAMAWVRQAPGKGLEWVSAITMSGRSIYYADSVKGRFTISRDNSKNTLYLQMNSLRAEDTAVYYCARVHRAFDYWGQGTLVTVSS VL: QSVLTQPPSASGTPGQRVTISCSGSPLFPDSGSFNWYQQLPGTAPKLLIYADSHRPSGVPDRFSGSKSGTSASLAISGLRSEDEADYYCGTWDYSLNRYVLGGGTKLTVLG ?
Ans: 0.000139 s⁻¹
